pKi: −log10 of the molar value.
Study the reported pKi values for Coagulation factor XI (Homo sapiens, UniProt P03951) given below; they originate from different publications.
observable: pKi

{"molecule": "CNC(=O)OC[C@H]1Cc2cccc(c2)[C@@H](n2cnc(-c3cc(Cl)ccc3-n3cc(C(F)(F)F)nn3)cc2=O)CCC[C@@H](C)C(=O)N1", "observable": "pKi", "endpoint-value": 6.96}

I: [2H]C([2H])([2H])n1ncc2c1-c1ccnc(c1)[C@@H](n1ccc(-c3cc(Cl)ccc3-n3cc(C(F)(F)F)nn3)cc1=O)CCC[C@@H](C)C(=O)N2
II: CC(C)(C)OC[C@@H](NS(=O)(=O)Cc1ccccc1)C(=O)N[C@@H](CCCCN)C(=O)NCc1ccc(C(=N)N)cc1
III: C[C@@H]1CCC[C@H](N2CCC(c3c(F)ccc(Cl)c3F)=CC2=O)C(=O)NCc2ccccc2NC1=O
IV: O=C1CCCCC(c2ccc(-c3cc(Cl)ccc3-n3cnnn3)cn2)c2ccnc(c2)-c2cc(F)ccc2N1 (stereo not drawn)
V: C[C@@H]1CCC[C@H](N2CCC(c3cc(Cl)ccc3-n3cc(Cl)nn3)=CC2=O)c2cc(ccn2)-c2c(cnn2CC(F)F)NC1=O
stdin: rank_up(items): orders items by reported pKi in ascending numerical order. Hello, could you send the labels back in the order asked? Thank you.
stdout: II, III, IV, V, I
(II: 6.29, III: 6.95, IV: 7.85, V: 9.12, I: 10.00)

---

pKi: −log10 of the molar value.
Several reports have described pKi for Coagulation factor XI (Homo sapiens, UniProt P03951); a selection of those results is presented here.
observable: pKi

Solved entries (count: 5):
{"molecule": "COC(=O)N1CCN2c3cccc(c3)[C@@H](NC(=O)c3cnn(-c4cccc(Cl)c4F)c3C)CCCCCNC(=O)[C@H]2C1", "pKi": 5.98}
{"molecule": "CC(=O)N1CCC(CCC[C@@H](NS(=O)(=O)Cc2ccccc2)C(=O)N[C@@H](CCC2CCNCC2)C(=O)NCc2ccc(C(=N)N)cc2)CC1", "pKi": 6.06}
{"molecule": "COC(=O)Nc1ccc(-c2cc([C@H](CC3CCCNC3)NC(=O)/C=C/c3cc(Cl)ccc3-n3cnnn3)nnc2Cl)cc1 (single isomer, unassigned)", "pKi": 6.13}
{"molecule": "N=C(N)c1ccc(CNC(=O)[C@H](CCC(N)=O)NC(=O)[C@@H](CO)NS(=O)(=O)Cc2ccccc2)cc1", "pKi": 6.89}
{"molecule": "O=C([C@H](Cc1ccccc1)n1cnc(-c2cc(Cl)ccc2-n2cc(Cl)nn2)cc1=O)N1CCC1", "pKi": 5.25}

a: O=C(Nc1cccc2[nH]ccc12)[C@H](Cc1ccccc1)n1cnc(-c2cc(Cl)ccc2-n2cc(Cl)nn2)cc1=O
b: CC1(C)Cc2c(-c3ccc4ncccc4c3)cccc2C(C(=O)Nc2ccc(C(=O)O)cc2)N1C(=O)[C@H]1CC[C@H](CN)CC1 (stereo partly shown)
stdin: Which value of pKi is numerically greater: that of a or that of b ? Answer by quoting the chosen item's label.
stdout: a

P: CN(C)Cc1nccn1-c1ccc(NC(=O)[C@H](Cc2ccccc2)n2cnc(-c3cc(Cl)ccc3-n3cc(Cl)nn3)cc2=O)c(F)c1
Q: O=C(NC1CCCCC1)[C@H](Cc1ccccc1)n1cnc(-c2cc(Cl)ccc2-n2cc(Cl)nn2)cc1=O
stdin: Field: lower recorded pKi (choose P or Q ) Kindly give the label for the entry you pick.
stdout: P

---

// compounds with reported Ki on Coagulation factor XI (Homo sapiens, UniProt P03951), multi-publication
observable: Ki (nM)

Worked cases, answers included:
{"compound": "COC(=O)Nc1ccc2c(c1)NCC(F)(F)C(=O)NC[C@H](NC(=O)/C=C/c1cc(Cl)ccc1-n1cnnn1)c1nc-2c[nH]1", "assayed-target": "Coagulation factor XI (Homo sapiens, UniProt P03951)", "Ki [nM]": 4520}
{"compound": "C[C@@H]1CCC[C@H](N2CCC(c3c(C(F)(F)F)ccc(Cl)c3F)=CC2=O)c2cc(ccn2)-c2c(cnn2C2CC2)NC1=O", "assayed-target": "Coagulation factor XI (Homo sapiens, UniProt P03951)", "Ki [nM]": 7.2}
{"compound": "O=C1CCCCC[C@H](NC(=O)c2cn(-c3cccc(Cl)c3F)nn2)C(=O)Nc2ccccc2N1", "assayed-target": "Coagulation factor XI (Homo sapiens, UniProt P03951)", "Ki [nM]": 6000}

A: C[C@@H]1CCC[C@H](N2CCC(c3c(F)ccc(Cl)c3F)=CC2=O)c2cc(ccn2)-c2c(cnn2C(F)F)NC1=O
B: O=C(O)c1ccc(NC(=O)[C@H](Cc2ccccc2)n2cnc(-c3cc(Cl)ccc3-n3cc(Cl)nn3)cc2=O)cc1
stdin: Lower Ki: A or B ? Respond with the label that goes with your answer.
stdout: B
(B: 2.5 nM, A: 8 nM)

A: C[C@H]1C(=O)Nc2cnn(C)c2-c2ccnc(c2)[C@@H](N2CCC(c3c(C(F)(F)F)ccc(Cl)c3F)=CC2=O)CCC1F (stereo partly shown)
B: Cc1c(C(=O)N[C@H]2CCCCCNC(=O)[C@H]3CN(C(=O)OC(C)(C)C)CCN3c3cccc2c3)cnn1-c1cccc(Cl)c1F
C: C[C@@H]1CCC[C@H](N2CCC(c3c(OC(F)F)ccc(Cl)c3F)=CC2=O)c2cc(ccn2)-c2c(cnn2C(F)F)NC1=O
D: N=C(N)c1ccc(CNC(=O)[C@H](CCC2CCNCC2)NC(=O)[C@@H](CCCC2CCNCC2)NS(=O)(=O)Cc2ccccc2)cc1
stdin: Put the items in sequence by Ki, from largest down. Use the labels to give the requested order.
stdout: B, D, A, C
(B: 3310 nM, D: 800 nM, A: 1.4 nM, C: 0.69 nM)

---

Across several studies, molecules have been characterized by their Ki on Coagulation factor XI (Homo sapiens); a selection follows.
observable: Ki (nM)

{"molecule": "CC(C)(C)OC(=O)N1CCN2c3cccc(c3)[C@@H](n3cnc(-c4cc(Cl)ccc4-n4cc(Cl)nn4)cc3=O)CCCCNC(=O)[C@H]2C1", "Ki / nM": 492}

1: COC(=O)Nc1ccc(-c2cc([C@H](Cc3ccccc3)NC(=O)/C=C/c3cc(Cl)ccc3-n3cnnn3)n[nH]c2=O)cc1F
2: O=C(Nc1ccccc1)[C@H](Cc1ccccc1)n1cnc(-c2cc(Cl)ccc2-n2cc(Cl)nn2)cc1=O
3: COC(=O)Nc1ccc2c(c1)OCCCCC[C@H](NC(=O)/C=C/c1cc(Cl)ccc1-n1cnnn1)c1nc-2c(Cl)[nH]1
4: COC(=O)Nc1ccc2c(c1)NC(=O)[C@@H](C)CCC[C@@H](c1ccc(-c3c(F)cccc3F)c[n+]1[O-])c1nc-2c(C)[nH]1 (single isomer, unassigned)
stdin: Sequence the entries by Ki, beginning with the highest number. Give me the labels in the order the question wants.
stdout: 1, 3, 2, 4
(1: 1680 nM, 3: 249 nM, 2: 35.7 nM, 4: 1.4 nM)

---

Assembled from different publications: Ki for Coagulation factor XI (Homo sapiens).
observable: Ki (nM)

{"molecule": "O=C(O)C[C@H]1CC[C@H](NC(=O)[C@H](Cc2ccccc2)n2cnc(-c3cc(Cl)ccc3-n3cc(Cl)nn3)cc2=O)CC1", "result-units": "nM", "endpoint-value": 220}
{"molecule": "O=C1CCCCC(c2ccc(-c3c(-n4cnnn4)ccc(Cl)c3F)cn2)c2cc(ncc2F)-c2cc(F)ccc2N1 (stereo not drawn)", "result-units": "nM", "endpoint-value": 8.9}
{"molecule": "Cn1ccc(CNC(=O)[C@H](Cc2ccccc2)n2cnc(-c3cc(Cl)ccc3-n3cc(Cl)nn3)cc2=O)n1", "result-units": "nM", "endpoint-value": 2290}
{"molecule": "COC(=O)Nc1ccc2c(c1)NC(=O)CCCC[C@H](NC(=O)c1c(F)cc(C)cc1F)c1cc-2ccn1", "result-units": "nM", "endpoint-value": 111}

I: COC(=O)Nc1ccc2c(c1)NC(=O)CCCC[C@H](c1ccc(-c3c(F)ccc(Cl)c3F)c[n+]1[O-])c1cc(F)c(F)c-2c1 (single isomer, unassigned)
II: COC(=O)N1CCN2c3cccc(c3)[C@@H](n3cnc(-c4cc(Cl)ccc4-n4cc(Cl)nn4)cc3=O)CCCCCNC(=O)[C@@H]2C1
stdin: Thinking about recorded Ki values, which is higher, I or II ? To answer, give the label that identifies your chosen option.
stdout: II
(II: 643 nM, I: 1.87 nM)

---

The following molecules were reported with Ki values on Coagulation factor XI (Homo sapiens, UniProt P03951) in different studies.
observable: Ki (µM)

Would you please look over these solved cases?
{"molecule": "NCc1ccc2c(c1)CCN([C@@H](Cc1ccccc1)C(=O)Nc1ccc(-c3cnc(C4CC4)o3)cc1)C2=O", "Ki [µM]": 0.221}
{"molecule": "O=C(Nc1ccc2nccnc2c1)[C@H](Cc1ccccc1)n1cnc(-c2cc(Cl)ccc2-n2cc(Cl)nn2)cc1=O", "Ki [µM]": 0.00644}
{"molecule": "O=C(/C=C/c1cc(Cl)ccc1-n1cnnn1)N[C@H]1C/C=C/CCOc2ccccc2-c2c[nH]c1n2", "Ki [µM]": 2.98}

P: N=C(N)c1ccc(CNC(=O)[C@H](CCC2CCNCC2)NC(=O)[C@@H](CCCn2cnnn2)NS(=O)(=O)Cc2ccccc2)cc1
Q: O=C(NCc1nccs1)[C@H](Cc1ccccc1)n1cnc(-c2cc(Cl)ccc2-n2cc(Cl)nn2)cc1=O
R: O=C(O)c1ccc(NC(=O)[C@H](Cc2ccc(F)cc2)n2ccc(-c3cc(Cl)ccc3-n3cnnn3)cc2=O)cc1
S: COC(=O)Nc1ccc(C(=O)N[C@@H](Cc2ccccc2)c2ccc(-c3cc(Cl)ccc3-n3cnnn3)c[n+]2[O-])cc1
T: CC1CCCC(c2ccc(-c3cc(Cl)ccc3-n3cnnn3)c[n+]2[O-])c2cccc(c2)-c2ccc(C#N)cc2NC1=O (stereo not shown)
stdin: Sort (5 molecules) by Ki: min first. Reply with the labels, ordered as the question asks.
stdout: T, S, R, P, Q

a: COC(=O)Nc1ccc2c(c1)NC(=O)CCCCCC(C(=O)NCc1csc3ccc(Cl)cc13)NC2=O (racemic)
b: O=C([C@H](Cc1ccccc1)n1cnc(-c2cc(Cl)ccc2-n2cc(Cl)nn2)cc1=O)N1CCC(N2C(=O)CCC2O)CC1 (mixture of isomers)
c: O=C(Nc1cnn(-c2ccc(Cl)cc2)c1)[C@H](Cc1ccccc1)n1cnc(-c2cc(Cl)ccc2-n2cc(Cl)nn2)cc1=O
d: CCc1[nH]c2nc1-c1ccc(NC(=O)OC)cc1NC(=O)CCCCC2c1ccc(-c2c(F)ccc(Cl)c2F)c[n+]1[O-] (single isomer, unassigned)
stdin: Rank items: key Ki, increasing. Reply format: the labels, ordered as requested.
stdout: d, c, a, b

P: NS(=O)(=O)C1CCN(C(=O)[C@H](Cc2ccccc2)n2cnc(-c3cc(Cl)ccc3-n3cc(Cl)nn3)cc2=O)CC1
Q: CCOC(=O)Nc1ccc2c(c1)NC(=O)CCCC[C@H](c1ccc(-c3c(F)ccc(Cl)c3F)c[n+]1[O-])c1cccc-2c1
R: O=C(Nc1ccc2[nH]cnc2c1)[C@H](Cc1ccccc1)n1cnc(-c2cc(Cl)ccc2-n2cc(Cl)nn2)cc1=O
stdin: Order by Ki, ascending. Please write the labels in the order that was asked for.
stdout: Q, R, P
(Q: 0.00123 µM, R: 0.0083 µM, P: 2.52 µM)
